read-out: Cytochrome P450 2B6 (Homo sapiens) (UniProt P20813); assay: CLD_CYP2B6_24hr: CellzDirect (CLD) Gene Expression Assay for xenobiotic metabolism (CYP2B6) at 24 hours (AID 2283686)
Results filed as inconclusive are left out. The source made the active and inactive calls. Rule for the calls: active = hit-call score of the fitted dose curve at least 0.9, where 1 is the maximum; inconclusive = response in the unintended direction; inactive = score below 0.9.
reported endpoint: AC50

Sample records with AC50:
N#Cc1c[nH]cc1-c1cccc2c1OC(F)(F)O2: 3.97 µM (active)
CCCC(=NOCC)C1=C(O)CC(CC(C)SCC)CC1=O (stereo not drawn): 28.9 µM (active)
O=P(O)(O)CCCl: inactive
CCCCOCN(C(=O)CCl)c1c(CC)cccc1CC: 1.11 µM (active)
CC(C)C1(C)N=C(c2ncccc2C(=O)O)NC1=O (stereo not drawn): 0.000671 µM (active)
CCCCC(C#N)(Cn1cncn1)c1ccc(Cl)cc1 (stereo not drawn): 9.62 µM (active)
CSC(=O)c1c(C(F)F)nc(C(F)(F)F)c(C(=O)SC)c1CC(C)C: 1.22 µM (active)
CC(C)Nc1nc(Cl)nc(NC(C)C)n1: 3.26 µM (active)

Data point: CNC(=O)Oc1cccc2ccccc12 ; AC50 = 7.28 µM (active)

Input CC1(C)C(C(=O)OC(C#N)c2cccc(Oc3ccccc3)c2)C1(C)C (stereo not drawn) . Output AC50: 4.44 µM (active)

Entry CCN(CC)C(=O)C(C)Oc1cccc2ccccc12 (stereo not drawn) — recorded AC50 = inactive

Input Clc1cccc(C(Cl)(Cl)Cl)n1 . Output AC50: 0.325 µM (active)

Lookup result for COC(=O)c1c(C(F)F)nc(C(F)(F)F)c(C2=NCCS2)c1CC(C)C ; measured AC50: 7.48 µM (active)

====

read-out: Cytochrome P450 3A7 (Homo sapiens) (UniProt P24462); assay: LTEA_HepaRG_CYP3A7: Life Technologies and Expression Analysis (LTEA) Assay for CYP3A7 using HepaRG (AID 2283492); settings: mRNA level, 48 h; actives raise or lower the signal
Sequence (P24462 whole entry, looked up): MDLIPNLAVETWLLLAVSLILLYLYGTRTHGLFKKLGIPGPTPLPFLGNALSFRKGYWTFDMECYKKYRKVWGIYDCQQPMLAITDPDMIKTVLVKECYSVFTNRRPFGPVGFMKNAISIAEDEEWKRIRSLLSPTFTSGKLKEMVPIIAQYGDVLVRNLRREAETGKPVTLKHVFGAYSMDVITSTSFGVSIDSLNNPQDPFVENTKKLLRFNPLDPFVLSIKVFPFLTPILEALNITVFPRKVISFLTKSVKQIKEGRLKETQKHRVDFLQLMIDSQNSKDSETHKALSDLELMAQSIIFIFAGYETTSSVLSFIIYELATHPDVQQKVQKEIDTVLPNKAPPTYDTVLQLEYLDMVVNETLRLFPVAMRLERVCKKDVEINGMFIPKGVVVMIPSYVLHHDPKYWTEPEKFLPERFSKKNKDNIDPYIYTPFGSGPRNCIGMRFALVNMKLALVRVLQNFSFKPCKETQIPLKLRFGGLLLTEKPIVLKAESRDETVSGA
Calls of active or inactive are those of the source. How the source made its calls: active means hit-call score of the fitted dose curve at least 0.9, where 1 is the maximum; inactive means score below 0.9.
Reply using exactly one outcome from label 1 (active), label 0 (inactive)

Test call, this molecule: CC(C)C1(C)N=C(c2ncccc2C(=O)O)NC1=O (stereo not given)
label 0

Outcome? CC(C)Nc1nc(Cl)nc(NC(C)C)n1
label 1

What classification did CS(=O)(=O)c1cc(C(F)(F)F)ccc1C(=O)c1cnoc1C1CC1 end up with in this test?
label 0

Recorded test call requested for CCCCOCN(C(=O)CCl)c1c(CC)cccc1CC
label 0

Name the outcome recorded for CN=C=S in the assay.
label 0

For CCNP(=S)(OC)O/C(C)=C/C(=O)OC(C)C (stereo not given) , what call appears in the results of this test?
label 1

// param item: Clc1cccc(C(Cl)(Cl)Cl)n1 ; yields the recorded call
label 0

Please share the test call associated with COc1ccc(-c2ccccc2)cc1NNC(=O)OC(C)C .
label 0

How did this test come out for Nc1cnn(-c2ccccc2)c(=O)c1Cl ?
label 0

So what was the verdict on O=c1n(Cl)c(=O)n(Cl)c(=O)n1Cl in this test?
label 0

====

assay: Tanguay_ZF_120hpf_AXIS_legacy: (Legacy) Oregon State University Tanguay Lab 120 Hour Post-fertilization zebrafish Assay for Body Axis Malformation (AID 2283635)
Records with an inconclusive call do not appear. Activity calls are given as the source filed them. The calls were made as follows: active = hit-call score of the fitted dose curve at least 0.9, where 1 is the maximum; inconclusive = response in the unintended direction; inactive = score below 0.9.
Mark one answer only. Choices: TRUE for active, FALSE for inactive

CN/C(=N\[N+](=O)[O-])NCc1cnc(Cl)s1: FALSE
O=C(O)c1c(Cl)ccc2cc(Cl)cnc12: FALSE
COCC(C)N(C(=O)CCl)c1c(C)csc1C (configuration not stated): TRUE
Cc1cnc(C2=NC(C)(C(C)C)C(=O)N2)c(C(=O)O)c1 (configuration not stated): FALSE
CCOC(=O)C(C)OC(=O)c1cc(Oc2ccc(C(F)(F)F)cc2Cl)ccc1[N+](=O)[O-] (configuration not stated): FALSE
O=P(O)(O)CCCl: FALSE

# ---- query compound ----
// param item: CC(C)=CC1C(C(=O)OCc2coc(Cc3ccccc3)c2)C1(C)C (configuration not stated) ; yields the recorded call
FALSE
